# Test system: KRas Q61H mutant
# measurement.protocol: Ras GTP binding domain inhibition assay (Cy3-GTP/Cy5-GTP competition)
# Parameters: species or system human
# setup.conditions: 20 μM; without SOS
measured.attribute: KRas Q61H mutant: % inh.

{"molecule": "COc1ccc(Cn2cnc(-c3nc(O)c4scc(-c5ccccn5)c4n3)c2)cc1 [drawing 839]", "result": "B (26-50% inhibition)"}
{"molecule": "Cc1cc(Cn2ccnc2-c2nc(O)c3scc(-c4ccccn4)c3n2)on1 [drawing 846]", "result": "B (26-50% inhibition)"}
{"molecule": "COC1CCN(c2nc(-c3nccn3C)nc3sc(-c4ccnc(N(C)C)c4)c(-c4ccccc4)c23)C1.Cl (stereo not shown)", "result": "D (76-100% inhibition)"}
{"molecule": "CC(C)CNC(=O)c1nc(-c2ccccn2)nc(O)c1O [drawing 811]", "result": "C (51-75% inhibition)"}
{"molecule": "COCCN(C)C(=O)c1nc(-c2ccccn2)nc(O)c1O [drawing 810]", "result": "A (1-25% inhibition)"}
{"molecule": "COC1CCN(c2nc(-c3nccn3C)nc3sc(-c4ccn(C)n4)c(-c4ccccc4)c23)C1 (stereo not shown) [drawing 863]", "result": "B (26-50% inhibition)"}
{"molecule": "CO[C@H]1CCC(Nc2nc(-c3nccn3C)nc3sc(-c4ccn(C)n4)c(-c4ccccc4)c23)C1 (stereo partly shown) [drawing 860]", "result": "B (26-50% inhibition)"}
{"molecule": "COc1cccc(-c2csc3c(O)nc(-c4nccn4C)nc23)c1Cl [drawing 878]", "result": "A (1-25% inhibition)"}
{"molecule": "Cn1ccc(-c2sc3nc(-c4nccn4C)nc(NC4CCOCC4)c3c2-c2ccccc2)n1 [drawing 862]", "result": "B (26-50% inhibition)"}
{"molecule": "COCC1CN(c2nc(-c3nccn3C)nc3sc(-c4cccc(OC)c4F)c(-c4ccc(OC)cc4)c23)C1 [drawing 805]", "result": "D (76-100% inhibition)"}
{"molecule": "COc1cccc(Cn2ccnc2-c2nc(O)c3scc(-c4ccccn4)c3n2)c1 [drawing 850]", "result": "C (51-75% inhibition)"}
{"molecule": "COc1ccc(-c2sc3nc(-c4nccn4C)nc(N4CCC(OC)C4)c3c2-c2ccccc2)cn1.Cl (stereo not shown)", "result": "B (26-50% inhibition)"}
{"molecule": "Oc1nc(-c2ncc3n2CCCC3)nc2c(-c3ccccn3)csc12 [drawing 833]", "result": "C (51-75% inhibition)"}
{"molecule": "COc1nscc1-c1sc2nc(-c3nccn3C)nc(N3CCC(OC)C3)c2c1-c1ccccc1.Cl (stereo not shown)", "result": "C (51-75% inhibition)"}
{"molecule": "COCCn1ccnc1-c1nc(O)c2scc(-c3ccccn3)c2n1 [drawing 852]", "result": "C (51-75% inhibition)"}
{"molecule": "COCCNc1nc(-c2nccn2C)nc2sc(-c3cccc(OC)c3)c(-c3ccc(OC)cc3)c12 [drawing 875]", "result": "B (26-50% inhibition)"}
{"molecule": "O=C(c1nc(-c2ccccn2)nc(O)c1O)N1CCCC1 [drawing 831]", "result": "B (26-50% inhibition)"}
{"molecule": "COc1c(O)nc(-c2ccccn2)nc1Oc1cnn(C)c1 [drawing 803]", "result": "D (76-100% inhibition)"}
{"molecule": "COc1c(O)nc(-c2ccccn2)nc1Oc1cccnc1 [drawing 802]", "result": "D (76-100% inhibition)"}
